Tested on: Pseudomonas aeruginosa
Test: Antimicrobial activity against Ceftazidime susceptible Pseudomonas aeruginosa assessed as resistant isolate by broth microdilution method
Assay type: functional
PROPERTY: Activity (%)
Give bare numbers, in %.

Answered cases to consult:
COMPOUND	Activity, %
C[C@@H](O)[C@H]1C(=O)N2C(C(=O)O)=C(SCCNC=N)C[C@H]12 [IMIPENEM ANHYDROUS]	13.1
CC(C)(O/N=C(\C(=O)N[C@@H]1C(=O)N2C(C(=O)[O-])=C(C[n+]3ccccc3)CS[C@H]12)c1csc(N)n1)C(=O)O	0
CO/N=C(\C(=O)N[C@@H]1C(=O)N2C(C(=O)[O-])=C(C[N+]3(C)CCCC3)CS[C@H]12)c1csc(N)n1	1

Next compound, please.
Output measured Activity for this item: C[C@@H](O)[C@H]1C(=O)N2C(C(=O)O)=C(S[C@@H]3CN[C@H](C(=O)N(C)C)C3)[C@H](C)[C@H]12
6.5

---

Test system: Klebsiella pneumoniae
Assay: Antimicrobial activity against ESBL producing Klebsiella pneumoniae assessed as resistant isolate by broth microdilution method
Assay type: functional
PROPERTY: Activity (%)
Give bare numbers, in %.

Below: 3 compounds and their reported Activity.
SUBSTANCE SMILES	Activity [%]
C[C@@H](O)[C@H]1C(=O)N2C(C(=O)O)=C(S[C@@H]3CN[C@H](C(=O)N(C)C)C3)[C@H](C)[C@H]12	4.5
CO/N=C(\C(=O)N[C@@H]1C(=O)N2C(C(=O)O)=C(CSc3nc(=O)c(O)nn3C)CS[C@H]12)c1csc(N)n1	72.7
CC(C)(O/N=C(\C(=O)N[C@@H]1C(=O)N2C(C(=O)[O-])=C(C[n+]3ccccc3)CS[C@H]12)c1csc(N)n1)C(=O)O	95.5

Next up:
Identify Activity associated with the compound CO/N=C(\C(=O)N[C@@H]1C(=O)N2C(C(=O)[O-])=C(C[N+]3(C)CCCC3)CS[C@H]12)c1csc(N)n1
29.5

---

System: Pseudomonas aeruginosa
Assay: Antimicrobial activity against imipenem non-susceptible Pseudomonas aeruginosa assessed as susceptible isolate by broth microdilution method
Assay type: functional
PROPERTY: Activity

Observe how each entry below is paired with its result.
COMPOUND	TGT	Activity
C[C@@H](O)[C@H]1C(=O)N2C(C(=O)O)=C(S[C@@H]3CN[C@H](C(=O)N(C)C)C3)[C@H](C)[C@H]12	Pseudomonas aeruginosa	42.5%
CO/N=C(\C(=O)N[C@@H]1C(=O)N2C(C(=O)[O-])=C(C[N+]3(C)CCCC3)CS[C@H]12)c1csc(N)n1	Pseudomonas aeruginosa	72.5%
C[C@@H](O)[C@H]1C(=O)N2C(C(=O)O)=C(S[C@@H]3CN[C@H](CNS(N)(=O)=O)C3)[C@H](C)[C@H]12	Pseudomonas aeruginosa	55.6%
C[C@@H](O)[C@H]1C(=O)N2C(C(=O)O)=C(SCCNC=N)C[C@H]12 [IMIPENEM ANHYDROUS]	Pseudomonas aeruginosa	0%

Return value of Activity for input CC(C)(O/N=C(\C(=O)N[C@@H]1C(=O)N2C(C(=O)[O-])=C(C[n+]3ccccc3)CS[C@H]12)c1csc(N)n1)C(=O)O , no commentary.
76.3%

---

Tested on: Escherichia coli
Assay: Antimicrobial activity against ESBL producing Escherichia coli by broth microdilution method
Format: functional
I'd appreciate it if you could supply MIC90 values for the items below.
One number for each entry, in µg/mL.

Example cases with answers are listed next.
COMPOUND	MIC90 [µg/mL]
C[C@@H](O)[C@H]1C(=O)N2C(C(=O)O)=C(S[C@@H]3CN[C@H](C(=O)N(C)C)C3)[C@H](C)[C@H]12	0.06
C[C@@H](O)[C@H]1C(=O)N2C(C(=O)O)=C(S[C@@H]3CN[C@H](CNS(N)(=O)=O)C3)[C@H](C)[C@H]12	0.06

Now consider a different compound.
For C[C@@H](O)[C@H]1C(=O)N2C(C(=O)O)=C(SCCNC=N)C[C@H]12 [IMIPENEM ANHYDROUS] , write its MIC90.
1
